Measured %Inh of individual entries
# System: EPHA7
# protocolConditions: concentration: 1 μM, replicates: in singlicate; n = 1;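 note: KINOMEscan kinase panel screen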

{"compoundString": "Cc1ccccc1Cn1ccn2c(=O)cc(N3CCOCC3)nc12", "studySystem": "EPHA7", "unitsOfMeasure": "%", "%Inh": 0}
{"compoundString": "Cc1nccc(-c2c(-c3ccc(F)cc3)ncn2CCCN2CCOCC2)n1.Cl", "studySystem": "EPHA7", "unitsOfMeasure": "%", "%Inh": 9}
{"compoundString": "CC(C)c1ccc(O)cc1Nc1ccnc2ccc(C(F)(F)F)cc12", "studySystem": "EPHA7", "unitsOfMeasure": "%", "%Inh": 0}
{"compoundString": "Cc1ccc(NC(=O)Nc2ccc(Cl)c(C(F)(F)F)c2)cc1-c1ccc(C(=O)Nc2ccncc2)cc1", "studySystem": "EPHA7", "unitsOfMeasure": "%", "%Inh": 15}

----------
Measured %Inh of individual entries
# System: CSNK1D
# protocolConditions: concentration: 1 μM, replicates: in singlicate; n = 1

{"compound": "CNc1nc(-c2ccc3c(N)n[nH]c3c2)cc(N2C[C@@H](C(=O)Nc3ccccc3)CC[C@H]2C)n1", "studySystem": "CSNK1D", "%Inh": "15%"}
{"compound": "COC(=O)C(NC(=O)NC1CCN(c2ccnc(Nc3ccc(F)cc3)n2)C1)c1ccccc1 (stereo not shown)", "studySystem": "CSNK1D", "%Inh": "92%"}
{"compound": "Fc1ccc(-c2nn3cccc(F)c3c2-c2ccncc2)cc1", "studySystem": "CSNK1D", "%Inh": "94%"}
{"compound": "COc1cccc(C2=C(Nc3cc(Cl)c(O)c(Cl)c3)C(=O)NC2=O)c1", "studySystem": "CSNK1D", "%Inh": "13%"}
{"compound": "COc1ccc(CSc2nnc(-c3ccc4nccn4c3)o2)cc1C(F)(F)F", "studySystem": "CSNK1D", "%Inh": "0%"}
{"compound": "O=C1NC(=O)C(c2ccc(Cl)cc2)=C1Nc1ccc(O)cc1", "studySystem": "CSNK1D", "%Inh": "0%"}
{"compound": "CNc1nc(-c2ccc3c(N)n[nH]c3c2)cc(N2C[C@@H](C(=O)NC3CCCCC3)OC[C@H]2C)n1", "studySystem": "CSNK1D", "%Inh": "41%"}
{"compound": "Cn1cncc1C(=O)NC1CCN(c2ccnc(Nc3ccc(F)cc3)n2)C1 (stereo not shown)", "studySystem": "CSNK1D", "%Inh": "0%"}
{"compound": "Cl.Cl.Cl.N#Cc1ccc(CCNc2nccc(-c3cccc(CN4CCNCC4)c3)n2)cc1", "studySystem": "CSNK1D", "%Inh": "23%"}
{"compound": "Cc1c(Cn2c(C)c(C)n3c(=O)cc(N4CCOCC4)nc23)cccc1C(F)(F)F", "studySystem": "CSNK1D", "%Inh": "24%"}
{"compound": "CCc1ccc(-c2ccc3c(c2)-c2n[nH]cc2S(=O)(=O)N3C)cc1", "studySystem": "CSNK1D", "%Inh": "32%"}
{"compound": "CCCCc1nn2ncccc2c1-c1ccnc(NC2CC2)n1", "studySystem": "CSNK1D", "%Inh": "90.1%"}
{"compound": "COc1ccc(Nc2nccc(N3CCC(NC(=O)C(C)c4ccc(Cl)cc4)C3)n2)cc1 (stereo not shown)", "studySystem": "CSNK1D", "%Inh": "0%"}
{"compound": "Cc1ccc(NC(=O)Nc2ccccc2)cc1-c1ccc(C(=O)Nc2ccncc2)cc1", "studySystem": "CSNK1D", "%Inh": "13%"}
{"compound": "Cc1c(Cn2c3ccccc3n3c(=O)cc(N4CCOCC4)nc23)cccc1C(F)(F)F", "studySystem": "CSNK1D", "%Inh": "10%"}
{"compound": "Fc1ccc(-c2nc3n(c2-c2ccncc2)CCS3)cc1", "studySystem": "CSNK1D", "%Inh": "95.3%"}

----------
Measured %Inh of individual entries
# Tested on: ULK3
# protocolConditions: concentration: 1 μM, replicates: in singlicate; n = 1
observationType: %Inh (%)

{"compound": "COC(=O)C(Cc1ccccc1)NC(=O)NC1CCN(c2ccnc(Nc3ccc(F)cc3)n2)C1 (stereo not shown)", "measuredResult": 0}
{"compound": "COc1ccc(CSc2nnc(-c3ccc4c(c3)CCO4)o2)cc1", "measuredResult": 0}
{"compound": "COc1cccc(C2=C(Nc3cc(Cl)c(O)c(Cl)c3)C(=O)NC2=O)c1", "measuredResult": 13}
{"compound": "Cc1cccc2c(-c3ccncn3)c(-c3ccc(F)cc3)nn12", "measuredResult": 10}
{"compound": "Cc1ccc(-c2nc(Nc3ccncc3)c3ccccc3n2)s1", "measuredResult": 7}
{"compound": "O=C1NC(=O)C(c2ccc(Cl)cc2)=C1Nc1ccc(O)cc1", "measuredResult": 10}
{"compound": "Cc1ccc(NC(=O)c2ccc(Cl)cc2)cc1-c1ccc(C(=O)Nc2ccncc2)cc1", "measuredResult": 0}
{"compound": "CS(=O)(=O)CCNCc1nc(-c2ccc3ncnc(Nc4ccc(OCc5ccccc5)c(Cl)c4)c3c2)cs1.Cl", "measuredResult": 3}
{"compound": "CN1c2ccc(-c3ccc(C(N)=O)cc3)cc2-c2[nH]ncc2S1(=O)=O", "measuredResult": 6}
{"compound": "CCCCc1nn2ncccc2c1-c1ccnc(NC2CC2)n1", "measuredResult": 0}
{"compound": "COC(=O)c1cccc(NC(=O)NC2CCN(c3ccnc(Nc4ccc(F)cc4)n3)C2)c1 (stereo not shown)", "measuredResult": 12}
{"compound": "COC(=O)c1cccc(NC(=O)NC2CCN(c3ccnc(Nc4ccc(OC)cc4)n3)C2)c1 (stereo not shown)", "measuredResult": 9}
{"compound": "COc1ccc(-c2coc3ccc(-c4nnc(C)o4)cc23)cc1", "measuredResult": 0}

----------
# Tested on: ACVR1B
# protocolConditions: concentration: 1 μM, replicates: in singlicate; n = 1

{"molecule": "COc1ccc(Nc2nccc(NCCNC(=O)Nc3cc(C)ccc3C)n2)cc1 [GSK1379899]", "studySystem": "ACVR1B", "%Inh / %": 0}
{"molecule": "O=C(Nc1n[nH]c2cc(-c3ccsc3)ccc12)C1CC1 [SB-732932]", "studySystem": "ACVR1B", "%Inh / %": 21}
{"molecule": "Cc1ccc(NC(=O)Nc2ccc(Cl)c(C(F)(F)F)c2)cc1-c1ccc(C(=O)Nc2ccncc2)cc1 [GSK1398470]", "studySystem": "ACVR1B", "%Inh / %": 5}
{"molecule": "Cc1ccccc1Cn1ccn2c(=O)cc(N3CCOCC3)nc12 [GSK2269905]", "studySystem": "ACVR1B", "%Inh / %": 0}
{"molecule": "CNc1cc(-c2ccc3c(N)n[nH]c3c2)nc(N)n1 [GSK2224810]", "studySystem": "ACVR1B", "%Inh / %": 21}
{"molecule": "COc1ccc(CSc2nnc(-c3ccc4nccn4c3)o2)cc1C(F)(F)F", "studySystem": "ACVR1B", "%Inh / %": 23}
{"molecule": "CSc1ccc(-c2nc3n(c2-c2ccncc2)CCC3)cc1 [SKF-105561]", "studySystem": "ACVR1B", "%Inh / %": 4}
{"molecule": "COc1cc2ncnc(Nc3cccc(Br)c3)c2cc1OC.Cl [GI230329]", "studySystem": "ACVR1B", "%Inh / %": 0}
{"molecule": "Cc1ccc(NC(=O)Nc2ccc(Cl)cc2)cc1-c1ccc(C(=O)Nc2ccncc2)cc1 [GSK1398472]", "studySystem": "ACVR1B", "%Inh / %": 0}
{"molecule": "CS(=O)(=O)CCNCc1nc(-c2ccc3ncnc(Nc4ccc5c(cnn5Cc5ccccc5)c4)c3c2)cs1.Cl.Cl [GW569716]", "studySystem": "ACVR1B", "%Inh / %": 0}
{"molecule": "Nc1ncnc2occ(-c3ccc4c(c3)CCN4C(=O)Cc3cc(F)ccc3F)c12 [GSK2645446]", "studySystem": "ACVR1B", "%Inh / %": 0}
{"molecule": "FC(F)(F)c1ccccc1-c1cc(-c2c[nH]nc2-c2ccccn2)ccn1 [GW679396]", "studySystem": "ACVR1B", "%Inh / %": 0}
{"molecule": "CCc1ccc(-c2ccc3c(c2)-c2n[nH]cc2S(=O)(=O)N3C)cc1", "studySystem": "ACVR1B", "%Inh / %": 0}
{"molecule": "CC(=O)c1cccc(NC(=O)NC2CCN(c3ccnc(Nc4ccc(F)cc4)n3)C2)c1 (stereo not shown) [GSK1379710]", "studySystem": "ACVR1B", "%Inh / %": 0}
{"molecule": "CC(C)c1ccc(O)cc1Nc1ccnc2ccc(C(F)(F)F)cc12 [GW482059]", "studySystem": "ACVR1B", "%Inh / %": 0}
{"molecule": "COc1ccc(Nc2nccc(N3CCC(NC(=O)C(C)c4ccc(Cl)cc4)CC3)n2)cc1 (stereo not shown) [GSK1379812]", "studySystem": "ACVR1B", "%Inh / %": 0}
{"molecule": "O=c1cc(N2CCOCC2)nc2n(Cc3cccc(Cl)c3Cl)c3ccccc3n12 [GSK2299009]", "studySystem": "ACVR1B", "%Inh / %": 0}
{"molecule": "COc1ccc(-c2coc3ccc(-c4nnc(C)o4)cc23)cc1", "studySystem": "ACVR1B", "%Inh / %": 12}
{"molecule": "COC(=O)C(Cc1ccccc1)NC(=O)NC1CCN(c2ccnc(Nc3ccc(F)cc3)n2)C1 (stereo not shown) [GSK1379714]", "studySystem": "ACVR1B", "%Inh / %": 0}
{"molecule": "Fc1ccc(-c2nc3n(c2-c2ccncc2)CCS3)cc1 [GI98581]", "studySystem": "ACVR1B", "%Inh / %": 15}
{"molecule": "O=C(Nc1n[nH]c2nc(-c3cccs3)c(Br)cc12)C1CC1 [SB-735297]", "studySystem": "ACVR1B", "%Inh / %": 0}
{"molecule": "CN1c2ccc(-c3ccc(C(N)=O)cc3)cc2-c2[nH]ncc2S1(=O)=O", "studySystem": "ACVR1B", "%Inh / %": 3}
{"molecule": "CCn1c(-c2c(N)noc2C)nc2cnccc21 [SB-737856]", "studySystem": "ACVR1B", "%Inh / %": 0}
{"molecule": "Cc1ccccc1-c1cc(-c2c[nH]nc2-c2ccccn2)ccn1 [GW680061]", "studySystem": "ACVR1B", "%Inh / %": 0}
{"molecule": "COc1ccc(Nc2nccc(N3CCC(NC(=O)c4cc5ccccc5s4)C3)n2)cc1 (stereo not shown) [GSK1379738]", "studySystem": "ACVR1B", "%Inh / %": 0}
{"molecule": "Cl.Cl.Cl.N#Cc1ccc(CCNc2nccc(-c3cccc(CN4CCNCC4)c3)n2)cc1 [GSK2137462]", "studySystem": "ACVR1B", "%Inh / %": 0}
{"molecule": "Cc1ccc(-c2nc(Nc3ccncc3)c3ccccc3n2)s1 [GSK189015]", "studySystem": "ACVR1B", "%Inh / %": 0}
{"molecule": "Cc1c(Cn2c(C)c(C)n3c(=O)cc(N4CCOCC4)nc23)cccc1C(F)(F)F [GSK2328680]", "studySystem": "ACVR1B", "%Inh / %": 20}

Data provenance is paper PMC5540273.
